Please provide measured Activity for the entries that follow.
Assay: Cell cycle arrest in human HeLaS3 cells assessed as accumulation at G2/M phase at 5 uM after 24 hrs by flow cytometry
Format: functional, cell-based
Settings: HeLa S3
Numbers only; they are read as %.

Lookup: Please report Activity for the following molecule: Oc1cccc(CNc2cc3c(cn2)[nH]c2ccccc23)c1
Found: 53.3

Lookup: Please report Activity for the following molecule: c1ccc(CNc2cc3c(cn2)[nH]c2ccccc23)cc1
Found: 80.5

Lookup: Please report Activity for the following molecule: c1ccc2c(c1)[nH]c1cnc(NCC3CCCCC3)cc12
Found: 50.5

Lookup: Please report Activity for the following molecule: C[n+]1cc2[nH]c3ccccc3c2cc1NCc1ccccc1
Found: 82.3
